Field: Percent Inhibition. Provide a value for each of the compounds that follow.
Target: recombinant human SAE enzyme (Homo sapiens, UniProt Q9UBT2)
Sequence (Q9UBT2 whole entry): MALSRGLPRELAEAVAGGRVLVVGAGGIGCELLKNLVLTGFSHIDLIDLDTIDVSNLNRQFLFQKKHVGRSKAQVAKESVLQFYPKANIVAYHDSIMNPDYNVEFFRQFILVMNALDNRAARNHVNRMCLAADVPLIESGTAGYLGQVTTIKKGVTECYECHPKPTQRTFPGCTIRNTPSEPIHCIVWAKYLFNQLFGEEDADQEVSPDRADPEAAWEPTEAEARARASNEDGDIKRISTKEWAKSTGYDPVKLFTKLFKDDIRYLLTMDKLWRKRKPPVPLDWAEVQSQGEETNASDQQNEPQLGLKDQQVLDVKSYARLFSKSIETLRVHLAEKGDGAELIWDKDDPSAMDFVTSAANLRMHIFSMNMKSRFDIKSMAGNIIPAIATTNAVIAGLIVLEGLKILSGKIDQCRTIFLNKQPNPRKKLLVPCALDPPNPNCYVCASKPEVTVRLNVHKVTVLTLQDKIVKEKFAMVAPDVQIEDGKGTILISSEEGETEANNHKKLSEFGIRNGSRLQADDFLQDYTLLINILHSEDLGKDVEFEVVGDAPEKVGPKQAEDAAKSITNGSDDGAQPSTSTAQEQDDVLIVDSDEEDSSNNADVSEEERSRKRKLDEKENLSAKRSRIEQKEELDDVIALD
Sequence (Q9UBE0 whole entry partner): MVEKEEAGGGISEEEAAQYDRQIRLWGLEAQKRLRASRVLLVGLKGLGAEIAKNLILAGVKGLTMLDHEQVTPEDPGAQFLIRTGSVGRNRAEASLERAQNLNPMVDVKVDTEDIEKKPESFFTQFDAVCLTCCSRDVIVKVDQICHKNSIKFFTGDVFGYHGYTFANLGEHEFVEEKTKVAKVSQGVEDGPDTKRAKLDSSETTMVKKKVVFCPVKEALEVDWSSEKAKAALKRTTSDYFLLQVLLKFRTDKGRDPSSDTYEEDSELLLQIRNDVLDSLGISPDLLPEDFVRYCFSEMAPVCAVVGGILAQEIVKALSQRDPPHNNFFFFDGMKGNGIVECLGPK
Test: SAE HTRF Enzyme Assay
Assay type: biochemical
Settings: compound concentration 0.111 μM; 0.111 µM
Procedure: The SAE enzymatic reaction totals 50 μl and contains 50 mM HEPES Hemisodium (pH 7.5), 0.05% BSA, 5 mM MgCl2, 0.5 μM ATP, 250 μM GSH, 0.01 μM Ubc9-GST, 0.125 μM Sumo-Flag and 0.11 nM recombinant human SAE enzyme. […] After incubation for 2 hours at 24° C., quantification of FRET is performed on the Pherostar™ (BMG Labtech). Percentage inhibition values at a single concentration or enzyme inhibition (IC50) values are determined from those curves. […]
Entry rule: numbers only, all in %.

# Percent Inhibition (compound: CC(c1ccccc1)n1ccc(C(=O)c2cncnc2N[C@@H]2C[C@H](COS(N)(=O)=O)[C@@H](O)[C@H]2O)n1 (single isomer, unassigned) [Compound I-361] ) is 85

# Percent Inhibition (compound: NS(=O)(=O)OC[C@H]1C[C@@H](Nc2ncncc2C(=O)c2ccn(CC3CC3c3ccccc3)c2)[C@@H](F)[C@@H]1O (single isomer, unassigned) [Compound I-9] ) is 91

# Percent Inhibition (compound: CC(c1ccc(C(F)(F)F)o1)n1ccc(C(=O)c2cncnc2N[C@@H]2C[C@H](COS(N)(=O)=O)[C@@H](O)[C@@H]2F)c1 (single isomer, unassigned) [Compound I-357] ) is 100

# Percent Inhibition (compound: CC(c1ccc(Cl)o1)n1ccc(C(=O)c2cncnc2N[C@@H]2C[C@H](COS(N)(=O)=O)[C@@H](O)[C@@H]2F)c1 (single isomer, unassigned) [Compound I-364] ) is 99

# Percent Inhibition (compound: NS(=O)(=O)OC[C@H]1C[C@@H](Nc2ncncc2C(=O)c2ccn(CC3CC3c3ccccc3)c2)[C@@H](F)[C@@H]1O (single isomer, unassigned) [Compound I-359] ) is 68
